Attribution: patent US11701359B2

# system-under-test: human EGFR L861Q+T790M (Homo sapiens, UniProt P00533, L861Q/T790M)
# Sequence (P00533 25-1210 T790M/L861Q): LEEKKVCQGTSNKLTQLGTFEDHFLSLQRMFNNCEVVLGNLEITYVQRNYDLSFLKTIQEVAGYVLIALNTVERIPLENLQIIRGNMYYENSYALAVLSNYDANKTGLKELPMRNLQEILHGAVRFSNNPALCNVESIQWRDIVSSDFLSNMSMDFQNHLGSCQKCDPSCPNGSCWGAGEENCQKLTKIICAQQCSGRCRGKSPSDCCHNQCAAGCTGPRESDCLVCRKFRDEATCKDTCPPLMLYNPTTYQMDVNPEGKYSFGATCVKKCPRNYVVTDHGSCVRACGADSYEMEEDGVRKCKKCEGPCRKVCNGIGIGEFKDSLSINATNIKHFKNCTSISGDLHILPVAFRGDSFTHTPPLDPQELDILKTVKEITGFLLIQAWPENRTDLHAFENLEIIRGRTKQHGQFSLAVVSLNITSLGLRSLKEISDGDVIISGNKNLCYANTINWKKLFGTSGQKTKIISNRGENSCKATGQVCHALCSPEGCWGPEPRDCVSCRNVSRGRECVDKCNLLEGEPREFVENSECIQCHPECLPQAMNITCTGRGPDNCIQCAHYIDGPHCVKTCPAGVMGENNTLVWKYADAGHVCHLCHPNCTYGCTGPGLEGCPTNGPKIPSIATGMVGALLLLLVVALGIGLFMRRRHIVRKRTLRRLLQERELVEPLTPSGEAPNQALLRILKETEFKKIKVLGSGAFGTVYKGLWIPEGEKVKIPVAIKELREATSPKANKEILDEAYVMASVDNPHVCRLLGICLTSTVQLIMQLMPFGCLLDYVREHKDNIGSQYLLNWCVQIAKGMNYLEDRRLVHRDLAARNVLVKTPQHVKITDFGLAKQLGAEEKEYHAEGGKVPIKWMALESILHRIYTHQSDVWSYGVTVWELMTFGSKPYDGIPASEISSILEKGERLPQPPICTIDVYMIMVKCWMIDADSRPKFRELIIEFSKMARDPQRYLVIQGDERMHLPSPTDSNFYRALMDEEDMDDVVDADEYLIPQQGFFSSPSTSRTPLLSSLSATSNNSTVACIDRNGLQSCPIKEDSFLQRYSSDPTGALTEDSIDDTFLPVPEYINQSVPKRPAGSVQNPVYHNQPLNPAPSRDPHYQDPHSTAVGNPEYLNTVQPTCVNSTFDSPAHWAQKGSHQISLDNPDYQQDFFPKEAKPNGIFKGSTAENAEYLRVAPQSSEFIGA
# run-description: Intracellular EGFR phosphorylation in mutant EGFR forced expression system using HEK293 cells
# assay-conditions: HEK293 cells expressing human EGFR L861Q+T790M, 6 hours; read-out: IC50, phosphorylated EGFR inhibition, L861Q + T790M
readout-label: IC50 (µM)

1. C=CC(=O)N[C@H]1C=C(C)c2c(-c3cnc4ccccc4c3)c3c(N)ncnc3n2C1 81.8

---

# System: Ba/F3-EGFR G719A cells
# run-description: Cell growth inhibitory effect, G719A mutant EGFR-expressing Ba/F3 cell line (CellTiter-Glo)
# Assay type: cell-based, mouse
# assay-conditions: Mus musculus, 72 h; Ba/F3 cells with human EGFR G719A, no EGF, 3 days; read-out: IC50 (nM) G719A
readout-label: IC50 (nM)

1) C=CC(=O)N[C@H]1C=C(C)c2c(-c3cnc4ccccc4c3)c3c(N)ncnc3n2C1 9
